Each recorded value in this set is attributed to patent US20260193254A1.

- ASSAY_METHOD_TEXT: Approximate solubility of solid state Form V at 25° C. and 50° C. (visual observation)
- Type: physicochemical
- TEST_SETTINGS: organic solvent or mixture, thermodynamic from solid, SL14 Dichloromethane, 25° C.
RECORDED_ENDPOINT: solubility at 10 min

If you can, please state the reported solubility at 10 min value of Nc1nc(=O)n(-c2ccccc2Cl)c2nc(C(F)(F)F)ccc12 [solid state Form V] .
< 5000 µg/mL

###

- TGT: MAT2A enzyme (Homo sapiens, UniProt P31153)
- Sequence (P31153 whole entry): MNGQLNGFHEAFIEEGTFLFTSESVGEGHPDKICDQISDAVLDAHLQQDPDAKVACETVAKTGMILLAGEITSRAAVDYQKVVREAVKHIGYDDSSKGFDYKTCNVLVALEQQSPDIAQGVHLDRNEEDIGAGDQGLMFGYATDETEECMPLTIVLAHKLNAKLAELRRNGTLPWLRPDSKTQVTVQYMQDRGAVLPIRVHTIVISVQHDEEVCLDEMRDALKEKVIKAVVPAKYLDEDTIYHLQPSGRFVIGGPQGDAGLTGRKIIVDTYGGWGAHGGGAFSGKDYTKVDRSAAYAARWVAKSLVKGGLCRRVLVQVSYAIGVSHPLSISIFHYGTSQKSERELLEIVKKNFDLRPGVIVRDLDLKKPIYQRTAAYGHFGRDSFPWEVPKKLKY
pIC50: −log10 of the molar value.
RECORDED_ENDPOINT: pIC50

Give recorded pIC50 with MAT2A enzyme (Homo sapiens, UniProt P31153) for the following compound: Nc1nc(=O)n(-c2ccccc2Cl)c2nc(C(F)(F)F)ccc12 [Formula (I)]
> 6.70
